Test system: SR leukemia
Assay: NCI tumour cell line growth inhibition, 48 h
Listed below: log10(TGI) values for each entry.
A difference of one corresponds to tenfold TGI; all values are log10 with TGI in µM.

Some compounds with recorded log10(TGI):
CCOc1ccc(Nc2nc(N)nc(N)c2N)cc1 ... 1.77
CCn1c2ccc(C(=O)CCCN3CCCCC3)cc2c2cc(C(=O)CCCN3CCCCC3)ccc21 ... 0.73
CCC[n+]1cc2cc(OC)c(OC)cc2c2c1-c1cc3c(cc1C2)OCO3 ... 1.42
CC1C(NNc2ccccc2)Oc2cc3c(cc2C1c1ccccc1O)OCO3 (stereo unspecified) ... 1.06
COC(=O)C1(CCCCCBr)CCCCCCCCCCC1=O (stereo unspecified) ... 1.75

Measured log10(TGI) of OC1(c2ccccc2)OC(C#Cc2ccccc2)(c2ccccc2)c2ccccc21 (stereo unspecified) : 0.97

Measured log10(TGI) of O=C1C(c2ccccc2)=[N+]([O-])c2ccccc21 : 1.37

Measured log10(TGI) of COc1ccc(/C=c2\s/c(=C3/SC(=S)N(c4ccccc4)C3=O)n(-c3ccccc3)c2=O)cc1 : 1.50

Measured log10(TGI) of Nc1ccccc1C#C/C=C\C#Cc1ccccc1[N+](=O)[O-] : 0.74

====

System: M14 melanoma
Test: NCI tumour cell line growth inhibition, 48 h
QUANTITY_KIND: TGI (µM)
The answer is to be given in µM; state only the numeric part.

CCn1c2ccc(C(=O)CCCN3CCCCC3)cc2c2cc(C(=O)CCCN3CCCCC3)ccc21 ... 3.6

Then this compound:
Measured TGI of Cc1c(CN2CCN(C)CC2)c(CN2CCN(C)CC2)c(C)n1-c1ccc(Cl)cc1 : 32

====

Test system: 786-0 renal
Test: NCI tumour cell line growth inhibition, 48 h
QUANTITY_KIND: TGI (µM)
The answer is to be given in µM; state only the numeric part.

Some compounds with recorded TGI:
COc1cc(/C=C2\C(=O)Nc3ccc(N(C)C)cc32)cc(OC)c1OC ... 33.3
COc1cccc2c1C(=O)c1c(O)c3c(c(O)c1C2=O)C[C@H](O)C[C@@H]3OC1CC(N)C(O)C(C)O1 (stereo partly specified) ... 14.2

Measured TGI of COc1ccc(-c2ccc(-c3ccc(C(=N)N)cn3)o2)cc1 : 18.8

====

Tested on: RXF 393 renal
Assay: NCI tumour cell line growth inhibition, 48 h; in the data active means GI50 below about 0.43 µM; inactive means the rest
Please reply with one of these outcomes: Y = active, N = inactive

Some solved cases for reference:
CCn1c2ccc(O)cc2c2c(C)c3c[n+](C)ccc3c(C)c21 ... N
Nc1ccccc1C#C/C=C\C#Cc1ccccc1[N+](=O)[O-] ... N
COc1ccc2c(c1)/C(=C\c1c(Cl)[nH]c3ccc(OC)cc13)C(=O)N2 ... N

Here is the next item to consider.
Prompt line: What did the test return for COc1ccc(Cn2cc3c(c2)-c2oncc2CC3)cc1 ?
Response line: N

====

System: UO-31 renal
Assay: NCI tumour cell line growth inhibition, 48 h
Listed below: TGI values for each entry.

Some compounds with recorded TGI:
CN(C)c1ccc(/C=C(\NC(=O)c2ccccc2)c2nn(C)c(=O)o2)cc1 ... > 100 µM
O=S(=O)(c1cc(Cl)ccc1Cl)n1ccnc1 ... > 100 µM
CCOC(=O)c1s/c(=N\Nc2nc3ccccc3cc2C2OCCO2)n(Cc2ccccc2)c1C ... > 100 µM
CCOC(=O)C1(C#N)C(c2ccccc2)CC(O)(c2ccc(Cl)cc2)C(C(=O)c2ccc(Cl)cc2)C1c1ccccc1 (stereo unspecified) ... > 100 µM
CC(CCC(=O)O)C(=O)O (stereo unspecified) ... > 100 µM

Then this compound:
Measured TGI of O=C1C=CC(=O)c2c(O)c(N3CCC[C@H]3CO)c(Cl)c(O)c21 : > 5.84 µM

====

Test system: HT29 colon
Assay: NCI tumour cell line growth inhibition, 48 h
QUANTITY_KIND: TGI

Some molecules with recorded TGI:
COC(=O)C1(CCCCCBr)CCCCCCCCCCC1=O (stereo unspecified) ... > 100 µM
COC(=O)/C(=N\NC(C)(C)C)C(C(=O)C(=O)Nc1cc(C)ccc1C)c1nc2ccccc2[nH]c1=O (stereo unspecified) ... > 100 µM
C=C1C(OC2O[C@@H]3O[C@@]4(C)CC[C@H]5[C@H](C)CC[C@@H](C2=C)[C@@]35O4)O[C@@H]2O[C@@]3(C)CC[C@H]4[C@H](C)CC[C@@H]1[C@@]24O3 (stereo partly specified) ... > 50 µM
COc1ccc2cc(-c3c(-c4ccncc4)nc(-c4ccc(S(C)(=O)=O)cc4C)n3C)ccc2c1 ... > 25 µM
CCN(CC)C(=S)SC ... > 100 µM

Then this molecule:
Measured TGI of O=S(=O)(c1cc(Cl)ccc1Cl)n1ccnc1 : > 100 µM

====

Listed below: TGI values for each entry.
Tested on: OVCAR-5 ovarian
Assay: NCI tumour cell line growth inhibition, 48 h
The answer is to be given in µM; state only the numeric part.

Some molecules with recorded TGI:
OCCNc1ncnc2c1ncn2Cc1cccc(COc2cccc(OCc3cccc(Cn4cnc5c(NCCO)ncnc54)c3)c2)c1 ... 36.8
Cc1cc(S(=O)(=O)Nc2n[nH]c(-c3ccccn3)n2)c(S)cc1Cl ... 45.4

Measured TGI of Cc1ccc(-c2csc(NC(=O)CN3CCN(c4cc5c(cc4F)c(=O)c(C(=O)O)cn5C4CC4)CC3)n2)cc1 : 39.8

====

Tested on: SK-MEL-5 melanoma
Assay: NCI tumour cell line growth inhibition, 48 h
Listed below: TGI values for each entry.

Some compounds with recorded TGI:
O=C(c1ccncc1)n1nc(-c2ccccc2)c(N=Nc2ccccc2[N+](=O)[O-])c1-c1ccccc1 ... > 100 µM
O=S(=O)(c1cc(Cl)ccc1Cl)n1ccnc1 ... 53.9 µM
COC(=O)c1ccccc1NC(=O)C(=O)NNC(=O)c1ccncc1 ... > 100 µM

Lab note: compound CCOc1ccc(Nc2nc(N)nc(N)c2N)cc1 tested on SK-MEL-5 melanoma; recorded TGI was > 100 µM

Lab note: compound COc1cc2cc(C(=O)N3C[C@H](CCl)c4c3cc(N)c3ccccc43)[nH]c2c(OC)c1OC tested on SK-MEL-5 melanoma; recorded TGI was < 0.005 µM

====

Tested on: NCI-H522 lung
Experiment: NCI tumour cell line growth inhibition, 48 h
QUANTITY_KIND: TGI

Some molecules with recorded TGI:
O=C(O)c1cccc2cccc(-c3cccc4cccc(C(=O)O)c34)c12 ... > 100 µM
Cc1[nH]c(=O)nc(NCCNCCO)c1C(=O)Nc1cccc2cc3ccccc3cc12 ... > 100 µM
Cc1cc(C)c2c(=O)cc(-c3cccc(F)c3)[nH]c2n1 ... 0.141 µM
Cc1cccc(C)c1NC(=O)C1C(=O)N(c2c(C)cccc2C)C(=O)/C1=N\NC(N)=S (stereo unspecified) ... > 100 µM
O=P(O)(O)c1ccccc1Oc1ccccc1 ... > 100 µM
CCn1c2ccc(O)cc2c2c(C)c3c[n+](C)ccc3c(C)c21 ... 10.4 µM
O=C(O)C1CCCCC1C(=O)O.[NH-]C1CCC1.[NH2-].[Pt+2] (stereo unspecified) ... > 100 µM
CC(C)C(=O)C(C)(C)CCc1ccccn1 ... > 100 µM

Lab note: molecule CCc1c(CNc2ccc(C(=O)NC(CC(=O)O)C(=O)O)cc2)ccc2nc(N)nc(N)c12 (stereo unspecified) tested on NCI-H522 lung; recorded TGI was > 1000 µM

Lab note: molecule COc1ccc2nc(/C(N)=C\C#N)ccc2c1 tested on NCI-H522 lung; recorded TGI was > 100 µM

Lab note: molecule C=C1C(=O)O[C@H]2[C@H]1CC/C(COC(=O)c1cc3cc(Cl)ccc3[nH]1)=C\CC[C@@]1(C)O[C@@H]21 tested on NCI-H522 lung; recorded TGI was 3.92 µM

Lab note: molecule NC(=O)c1csc(C2(O)COC(CO)C2O)n1 (stereo unspecified) tested on NCI-H522 lung; recorded TGI was > 100 µM

Lab note: molecule COC(=O)C1=C(C(=O)OC)SC(=CC#CC=C2SC(C(=O)OC)=C(C(=O)OC)S2)S1 tested on NCI-H522 lung; recorded TGI was 54.8 µM

====

Tested on: A549 NSCLC
Assay: NCI tumour cell line growth inhibition, 48 h; in the data active = GI50 below about 0.43 µM; inactive = the rest
Please reply with one of these outcomes: Y (active), N (inactive)

Some solved cases for reference:
CN1C(=O)N(C)C2C1NN=c1s/c(=C\c3ccc(F)cc3)c(=O)n12 (stereo not given) ... N
CCOc1cc(/C=N\Nc2nnc(C)n2N)c(C)cc1N(CCCl)CCCl ... N
Cc1ccc2nc(-c3ccc(N(C)C)c(Br)c3)cn2c1 ... N
NC(=O)c1cc2c3ccccc3ccn2c1-c1ccccc1 ... Y

Here is the next item to consider.
Prompt line: What did the test return for Cc1cc2c(cc1Cl)SC1=NN(C)C(N(C)C)N1S2(=O)=O (stereo not given) ?
Response line: N
